Target: Beta-secretase 1 (Homo sapiens)
Assay: Inhibition of BACE1 at 50 uM by FRET assay
metric: inhibition (%)
Dear colleague, please return just the value in %, with no unit written.

Worked examples follow.
[
  {
    "compound": "COc1ccc(SCC(O)Cn2c(C)c(C)c3ccccc32)c(OC)c1 (stereo unspecified)",
    "inhibition, %": 37
  },
  {
    "compound": "Oc1ccccc1SCC(O)Cn1c(-c2ccccc2)cc2ccccc21 (stereo unspecified)",
    "inhibition, %": 102
  },
  {
    "compound": "COc1ccc(SCC(O)Cn2c(-c3ccccc3)cc3ccccc32)c(OC)c1 (stereo unspecified)",
    "inhibition, %": 42
  },
  {
    "compound": "COc1ccc(SCC(O)Cn2c(C)c(C)c3ccccc32)cc1 (stereo unspecified)",
    "inhibition, %": 70
  },
  {
    "compound": "OC(CSc1ccccc1)Cn1c2ccccc2c2ccccc21 (stereo unspecified)",
    "inhibition, %": 85
  }
]

For record Oc1ccc(SCC(O)COc2ccc(Cc3ccccc3)cc2)cc1 (stereo unspecified) the listed inhibition is 100

For record Cc1ccc(SCC(O)Cn2c(-c3ccccc3)cc3ccccc32)cc1 (stereo unspecified) the listed inhibition is 65

For record OC(CSCCCc1ccccc1)Cn1c2c(c3ccccc31)CCC2 (stereo unspecified) the listed inhibition is 81

For record OC(CSc1ccccc1F)Cn1c2c(c3ccccc31)CCC2 (stereo unspecified) the listed inhibition is 82

For record COc1ccc(SCC(O)Cn2c3c(c4ccccc42)CCCC3)cc1 (stereo unspecified) the listed inhibition is 90

For record Nc1cccc(SCC(O)Cn2c3ccccc3c3ccccc32)c1 (stereo unspecified) the listed inhibition is 87

---

Molecular target: Beta-secretase 1 (Homo sapiens, UniProt P56817)
Sequence (P56817 whole entry): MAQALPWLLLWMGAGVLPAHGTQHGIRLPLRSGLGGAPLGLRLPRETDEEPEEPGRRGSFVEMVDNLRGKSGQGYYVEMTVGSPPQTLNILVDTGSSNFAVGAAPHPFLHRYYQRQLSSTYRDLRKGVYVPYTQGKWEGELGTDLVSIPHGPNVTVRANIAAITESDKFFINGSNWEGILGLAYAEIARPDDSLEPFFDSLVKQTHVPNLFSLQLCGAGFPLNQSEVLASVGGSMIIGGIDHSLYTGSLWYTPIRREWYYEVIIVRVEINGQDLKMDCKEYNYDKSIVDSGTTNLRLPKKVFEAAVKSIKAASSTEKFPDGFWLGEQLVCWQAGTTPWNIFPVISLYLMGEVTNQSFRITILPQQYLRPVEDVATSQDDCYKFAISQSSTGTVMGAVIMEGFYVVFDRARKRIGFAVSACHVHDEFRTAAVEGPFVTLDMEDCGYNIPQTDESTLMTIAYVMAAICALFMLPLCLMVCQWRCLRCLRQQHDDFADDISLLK
Assay: Inhibition of BACE1 at 100 uM by FRET assay
metric: inhibition
# number then unit; no other words

For record COc1ccc(SCC(O)Cn2c3c(c4ccccc42)CCCC3)c(OC)c1 (configuration not stated) the listed inhibition is 74%

---

Below, each entry is listed with its recorded inhibition.
Molecular target: Beta-secretase 1 (Homo sapiens, UniProt P56817)
Assay: Inhibition of BACE1 at 100 uM by FRET assay
Dear colleague, please return just the value in %, with no unit written.

[
  {
    "compound": "CCc1ccccc1SCC(O)Cn1c(-c2ccccc2)cc2ccccc21 (stereo not given)",
    "inhibition [%]": 80
  },
  {
    "compound": "CCc1ccc(SCC(O)Cn2ccc3cccc(CC)c32)cc1 (stereo not given)",
    "inhibition [%]": 92
  }
]

For record Cc1ccccc1SCC(O)CN1CCC(C(O)(c2ccccc2)c2ccccc2)CC1 (stereo not given) the listed inhibition is 5

For record CCc1ccc(SCC(O)CN2CCc3cc(OC)c(OC)cc3C2c2ccccc2)cc1 (stereo not given) the listed inhibition is 21

For record OC(CSc1ccccc1)CN1CCCCCC1 (stereo not given) the listed inhibition is 2

For record Nc1cccc(SCC(O)Cn2c3ccccc3c3ccccc32)c1 (stereo not given) the listed inhibition is 100

For record COc1ccc(SCC(O)Cn2c3ccccc3c3ccccc32)cc1 (stereo not given) the listed inhibition is 88

---

Biological target: Beta-secretase 1 (Homo sapiens)
Experiment: Inhibition of BACE1 at 50 uM by FRET assay
metric: inhibition (%)
Dear colleague, please return just the value in %, with no unit written.

Worked examples follow.
[
  {
    "molecule": "COc1ccc(SCC(O)Cn2c3ccccc3c3ccccc32)cc1 (stereo not given)",
    "reading-unit": "%",
    "inhibition": 72
  },
  {
    "molecule": "OC(COc1ccc(Cc2ccccc2)cc1)CSc1ccccc1Cl (stereo not given)",
    "reading-unit": "%",
    "inhibition": 73
  },
  {
    "molecule": "OC(CSc1ccc2ccccc2c1)Cn1c2ccccc2c2ccccc21 (stereo not given)",
    "reading-unit": "%",
    "inhibition": 74
  },
  {
    "molecule": "COc1ccc(SCC(O)Cn2ccc3ccccc32)c(OC)c1 (stereo not given)",
    "reading-unit": "%",
    "inhibition": 76
  },
  {
    "molecule": "CCc1ccc(SCC(O)Cn2c(-c3ccccc3)cc3ccccc32)cc1 (stereo not given)",
    "reading-unit": "%",
    "inhibition": 78
  }
]

For record Cc1c(C)n(CC(O)CSc2ccccc2Cl)c2ccccc12 (stereo not given) the listed inhibition is 93

For record CCc1cccc2ccn(CC(O)CSc3ccc(OC)cc3)c12 (stereo not given) the listed inhibition is 54

For record OC(CSc1ccc2ccccc2c1)Cn1c2c(c3ccccc31)CCC2 (stereo not given) the listed inhibition is 80

For record COc1ccc(SCC(O)Cn2c3c(c4ccccc42)CCC3)cc1 (stereo not given) the listed inhibition is 74

For record Cc1ccccc1SCC(O)Cn1c2c(c3ccccc31)CCC2 (stereo not given) the listed inhibition is 89

Reference for the values: ChEMBL document CHEMBL2057073
